assay: ATG_SREBP_CIS: Attagene CIS-FACTORIAL HepG2 Assay for human Sterol Regulatory Element Binding (SREBP) (AID 2282962); details: HepG2 Attagene cis-factorial SREBP reporter, mRNA; actives raise or lower the signal
Activity calls are given as the source filed them. The calls were made as follows: active = hit-call score of the fitted dose curve at least 0.9, where 1 is the maximum; inactive = score below 0.9.
API: response.call in True (active), False (inactive)

O=C(F)C(F)(F)C(F)(F)C(F)(F)C(=O)F	False
O=C(c1ccccc1)c1ccccc1	False
CC(C)C=O	False

Exercise: Kindly provide the recorded test outcome for the following compound: CCOC=C(C(=O)OCC)C(=O)OCC
Key: False

Exercise: Kindly provide the recorded test outcome for the following compound: C=COC(=O)C(C)(C)CCCCCC
Key: False

Exercise: Kindly provide the recorded test outcome for the following compound: FC(F)=C(F)C(F)(F)C(F)(F)C(F)(F)C(F)F
Key: False

Exercise: Kindly provide the recorded test outcome for the following compound: CCCCCCCCCCCCCC[n+]1ccccc1
Key: True

Exercise: Kindly provide the recorded test outcome for the following compound: COc1ccccc1NC(=O)c1cc2ccccc2cc1O
Key: True

Exercise: Kindly provide the recorded test outcome for the following compound: Brc1cc(Br)c(Oc2c(Br)cc(Br)c(Br)c2Br)cc1Br
Key: False

Exercise: Kindly provide the recorded test outcome for the following compound: FC(F)(F)C(F)(F)C(F)(F)C(F)(F)I
Key: False

Exercise: Kindly provide the recorded test outcome for the following compound: COCC1CCC(CO)CC1 (configuration not stated)
Key: False

Exercise: Kindly provide the recorded test outcome for the following compound: O=C(NCc1ncc(C(F)(F)F)cc1Cl)c1c(Cl)cccc1Cl
Key: True

Exercise: Kindly provide the recorded test outcome for the following compound: O=C(O)CN(CCCN(CC(=O)O)CC(=O)O)CC(=O)O
Key: False

Exercise: Kindly provide the recorded test outcome for the following compound: CCO[Si](CCC1CCC2OC2C1)(OCC)OCC (configuration not stated)
Key: False

----------
Read-out: CYP2C8 (gene 1558)
Assay: LTEA_HepaRG_CYP2C8: Life Technologies and Expression Analysis (LTEA) Assay for CYP2C8 using HepaRG (AID 2283483)
Settings: mRNA level, 48 h; actives raise or lower the signal
Protocol: LTEA_HepaRG is a cell based, multiplexed-readout assay that uses HepaRG, a human liver cell line, with measurements taken at 48 hours after chemical dosing on a 96-well plate.LTEA_HepaRG_CYP2C8 is one of 102 assay component(s) measured in the LTEA HepaRG cell culture assay. It is a marker of NR mediated metabolism.Data from the assay component LTEA_HepaRG_CYP2C8 was analyzed into 1 endpoint. […]
The source made the active and inactive calls. How the source made its calls: active means hit-call score of the fitted dose curve at least 0.9, where 1 is the maximum; inactive means score below 0.9.
Quantity name: AC50

Worked cases, answers included:
O=C1NS(=O)(=O)c2ccccc21	inactive
N=C(N)c1ccc(OCCCCCOc2ccc(C(=N)N)cc2)cc1	3.73 µM (active)
Cc1[nH]nc2c1N=C(c1ccccc1Cl)c1cc([N+](=O)[O-])ccc1N2	7.45 µM (active)
CCCCC=O	inactive
OCC(CO)(CBr)CBr	inactive

// field: AC50; key: CN(Cc1cnc2nc(N)nc(N)c2n1)c1ccc(C(=O)N[C@@H](CCC(=O)O)C(=O)O)cc1 ; value = inactive

----------
target: Peroxisome proliferator-activated receptor gamma (Homo sapiens) (UniProt P37231); test: NVS_NR_hPPARg: NovaScreen (NVS) Nuclear Receptor Binding Assay for human Peroxisome Proliferator-activated Receptor gamma (PPARg) (AID 2283370)
Sequence (P37231 whole entry, looked up): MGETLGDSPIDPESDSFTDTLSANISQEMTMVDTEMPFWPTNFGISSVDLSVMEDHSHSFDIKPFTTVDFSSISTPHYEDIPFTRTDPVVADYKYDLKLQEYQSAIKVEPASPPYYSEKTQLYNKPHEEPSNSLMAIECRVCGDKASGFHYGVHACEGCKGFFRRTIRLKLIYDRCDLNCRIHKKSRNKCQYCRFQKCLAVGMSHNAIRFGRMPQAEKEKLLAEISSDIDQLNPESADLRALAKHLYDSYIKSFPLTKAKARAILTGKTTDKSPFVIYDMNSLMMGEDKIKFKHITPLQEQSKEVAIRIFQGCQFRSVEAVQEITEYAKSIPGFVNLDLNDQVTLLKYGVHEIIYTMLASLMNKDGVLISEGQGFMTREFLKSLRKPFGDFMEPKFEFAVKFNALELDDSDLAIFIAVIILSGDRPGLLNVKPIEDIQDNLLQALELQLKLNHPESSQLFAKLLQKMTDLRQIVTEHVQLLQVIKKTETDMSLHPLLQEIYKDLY
Results filed as inconclusive are left out. Active and inactive are the calls of the source. How the source made its calls: active means hit-call score of the fitted dose curve at least 0.9, where 1 is the maximum; inconclusive means response in the unintended direction; inactive means score below 0.9.
Quantity name: AC50

CCCCCCCCCCCC(=O)O	inactive
CCCCc1ccc2ccccc2c1S(=O)(=O)O	inactive
CC(O)COc1ccccc1 (stereo unspecified)	inactive
CCC(C)c1ccccc1O (stereo unspecified)	inactive
CCCCCCCCCC=CCC1CC(=O)OC1=O (stereo unspecified)	25 µM (active)

Let us move to another entry and its AC50.
The compound CC(C)[C@@H]1CC[C@@H](C)C[C@H]1O , tested on Peroxisome proliferator-activated receptor gamma (Homo sapiens) (UniProt P37231), showed AC50 of inactive

----------
assay: ATG_PPRE_CIS: Attagene CIS-FACTORIAL HepG2 Assay for human Peroxisome Proliferator-activated Response Element (PPRE) (AID 2282958); conditions: HepG2 PPRE cis-element reporter, Attagene transcription factor profiling; actives raise or lower the signal
The source made the active and inactive calls. How the source made its calls: active means hit-call score of the fitted dose curve at least 0.9, where 1 is the maximum; inactive means score below 0.9.
API: response.call in active, inactive

Below are worked cases with known answers.
OCC1CCC(CO)CC1 (stereo unspecified)	inactive
NCc1cccc(CN)c1	inactive
CCCCCCCCCCCC(=O)NCCCN(C)C	inactive

Exercise: Kindly provide the recorded test outcome for the following molecule: COc1cc([N+](=O)[O-])ccc1N
Key: inactive

Exercise: Kindly provide the recorded test outcome for the following molecule: CCCCCCC(C)(C)C(=O)O
Key: active

Exercise: Kindly provide the recorded test outcome for the following molecule: CCCCN(C)C
Key: inactive

Exercise: Kindly provide the recorded test outcome for the following molecule: Cc1cccc2c1ccc1ccccc12
Key: inactive

Exercise: Kindly provide the recorded test outcome for the following molecule: O=CC(F)(F)C(F)(F)C(F)(F)F
Key: inactive

Exercise: Kindly provide the recorded test outcome for the following molecule: O=C(O)c1cccc(C(=O)O)n1
Key: inactive

Exercise: Kindly provide the recorded test outcome for the following molecule: Oc1cc2ccccc2cc1O
Key: active

Exercise: Kindly provide the recorded test outcome for the following molecule: Oc1ccc(Cc2ccccc2O)cc1
Key: inactive

Exercise: Kindly provide the recorded test outcome for the following molecule: CCCCCc1ccc(O)cc1
Key: inactive

Exercise: Kindly provide the recorded test outcome for the following molecule: NS(=O)(=O)O
Key: inactive

----------
Read-out: CD40, CD40 (gene 958)
Assay: BSK_SAg_CD40: BioMAP Diversity Plus: SAg Assay for CD40 Biomarker Activity (AID 2283088)
Settings: primary human HUVEC with PBMC; actives raise or lower the signal
Description: BSK_SAg is a cell-based, multiplexed-readout assay that uses umbilical vein endothelium and peripheral blood mononuclear cells, a human vascular primary cell co-culture, with measurements taken at 24 hours after chemical dosing in a 96-well plate.BSK_SAg_CD40 is one of 10 assay component(s) measured or calculated from the BSK_SAg assay. […] This assay endpoint, BSK_SAg_CD40, was analyzed with bidirectional fitting relative to DMSO as the negative control and baseline of activity. […]
Active and inactive are the calls of the source. The calls were made as follows: active = hit-call score of the fitted dose curve at least 0.9, where 1 is the maximum; inactive = score below 0.9.
API: response.call in 1 (yes) (active), 0 (no) (inactive)

COc1cc(OC)nc(NC(=O)NS(=O)(=O)Nc2ccccc2C(=O)N(C)C)n1	0 (no)

Exercise: Kindly provide the recorded test outcome for the following compound: O=C1NS(=O)(=O)c2ccccc21
Key: 0 (no)

Exercise: Kindly provide the recorded test outcome for the following compound: OCCN1CN(CCO)CN(CCO)C1
Key: 1 (yes)

Exercise: Kindly provide the recorded test outcome for the following compound: CC(=O)Nc1ccc(O)cc1
Key: 0 (no)

Exercise: Kindly provide the recorded test outcome for the following compound: C=CC(=O)OCCC(F)(F)C(F)(F)C(F)(F)C(F)(F)C(F)(F)C(F)(F)C(F)(F)C(F)(F)F
Key: 0 (no)

Exercise: Kindly provide the recorded test outcome for the following compound: Oc1cc2ccccc2cc1O
Key: 0 (no)

Exercise: Kindly provide the recorded test outcome for the following compound: O=C(NO)c1ccccc1
Key: 0 (no)

Exercise: Kindly provide the recorded test outcome for the following compound: CC(C)(C)c1ccc(O)c(O)c1
Key: 1 (yes)

----------
molecular target: Nuclear receptor subfamily 1 group I member 3 (Homo sapiens); test: ATG_CAR_TRANS: Attagene TRANS-FACTORIAL HepG2 Assay for human Constitutive Androstane Receptor (CAR) (AID 2282969); settings: HepG2 Attagene TRANS-FACTORIAL CAR reporter;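 also: activators raise reporter mRNA above DMSO so AC50 marks induction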
Results filed as inconclusive are left out. Calls of active or inactive are those of the source. How the source made its calls: active means hit-call score of the fitted dose curve at least 0.9, where 1 is the maximum; inconclusive means response in the unintended direction; inactive means score below 0.9.
Quantity name: outcome

CCC(=O)C=Cc1ccc(OC)cc1	inactive
CCC(C)c1nccnc1OC (configuration not stated)	inactive
C=CC(=C)CC/C=C(\C)CCC=C(C)C	inactive
CCc1cccc(CC)c1NC(=O)C(=O)O	inactive
O=C1OC2(c3ccccc31)c1cc(I)c(O)c(I)c1Oc1c2cc(I)c(O)c1I	inactive

// field: outcome; key: Cc1ccc(N=Nc2c(O)ccc3ccccc23)c(C)c1 ; value = inactive

// field: outcome; key: c1ccc(CNc2ncnc3c2ncn3C2CCCCO2)cc1 (configuration not stated) ; value = inactive

----------
Read-out: Interleukin-8 (IL8), CXCL8 (gene 3576)
Experiment: BSK_LPS_IL8: BioMAP Diversity Plus: LPS Assay for Interleukin-8 (IL8) Biomarker Activity (AID 2283078)
Settings: primary human HUVEC with PBMC; actives raise or lower the signal
Method: BSK_LPS is a cell-based, multiplexed-readout assay that uses umbilical vein endothelium and peripheral blood mononuclear cells, a human vascular primary cell co-culture, with measurements taken at 24 hours after chemical dosing in a 96-well plate.BSK_LPS_IL8 is an assay component measured in the BSK_LPS assay. It measures IL-8 antibody related to regulation of gene expression using ELISA technology.Data from the assay component BSK_LPS_IL8 was analyzed into 1 assay endpoint. […]
Activity calls are given as the source filed them. The calls were made as follows: active = hit-call score of the fitted dose curve at least 0.9, where 1 is the maximum; inactive = score below 0.9.
API: response.call in TRUE (active), FALSE (inactive)

CCCCC(CC)C(=O)O (configuration not stated)	FALSE

Exercise: Kindly provide the recorded test outcome for the following molecule: C[C@]12CC[C@@H]3c4ccc(O)cc4CC[C@H]3[C@@H]1C[C@@H](O)[C@@H]2O
Key: FALSE

Exercise: Kindly provide the recorded test outcome for the following molecule: CCCCCc1ccc(O)cc1
Key: TRUE

Exercise: Kindly provide the recorded test outcome for the following molecule: CC(=O)Nc1ccc(O)cc1
Key: FALSE

Exercise: Kindly provide the recorded test outcome for the following molecule: Cc1ccc(C(=O)c2ccccc2)cc1
Key: FALSE

Exercise: Kindly provide the recorded test outcome for the following molecule: Cc1[nH]nc2c1N=C(c1ccccc1Cl)c1cc([N+](=O)[O-])ccc1N2
Key: TRUE

Exercise: Kindly provide the recorded test outcome for the following molecule: CN(Cc1cnc2nc(N)nc(N)c2n1)c1ccc(C(=O)N[C@@H](CCC(=O)O)C(=O)O)cc1
Key: FALSE
